Sourced from PubChem BioAssay (NCI)

- Protocol Summary: NCI Yeast Anticancer Drug Screen. Data for the mec2-1 strain (AID 157)
- Assay Setup: S. cerevisiae mec2-1 strain, at 1.2 µM, hits give high values
Compounds without any hit were thinned out: in the full panel of roughly 79,000, 15% have a hit.
Listed here are compounds together with their documented growth inhibition.
Quick note: give the figure in %, leave out the unit.

For orientation, consider the following solved cases.
Compound	Parameter Measured	Observed Measurement
N#CNC(N)=Nc1cc2ccccc2c2ccccc12	growth inhibition	24
CCc1nc2ccc(NCCN(C)C)c3c(=O)c4ccccc4n1c23	growth inhibition	25

get_value(item= O=C(O)C1CC(c2ccccc2)=NN1c1ccccc1 (configuration not stated) , readout=growth inhibition) returns -45

get_value(item= COC1CCC(O)C(/C=C/[N+](=O)[O-])C1 (configuration not stated) , readout=growth inhibition) returns 5

get_value(item= Cc1cc(N(CCOS(C)(=O)=O)CCOS(C)(=O)=O)ccc1C=Nc1ccc(-c2csc(-c3ccccc3)n2)c(Cl)c1 , readout=growth inhibition) returns -2

get_value(item= Cn1c(=O)c2c(nc(N)n2C2OC(CO)C(O)C2O)n(C)c1=O (configuration not stated) , readout=growth inhibition) returns 0

get_value(item= CCOC1Oc2ccccc2-c2nc(N)ncc21 (configuration not stated) , readout=growth inhibition) returns 13
